The binders listed here are annotated with their Kd.
study.target: T1, recombinant extracellular domain of CD38 (human, UniProt P28907 43-300)
T1 construct: also called CD38 extracellular domain; AtaGenix ATMP00140HU
experiment.summary: Biacore SPR

[
  {
    "binder": "FTL004-hu-12 (antibody, human IgG1, kappa, V domains shown, also called FLT004-hu-12; FTL004-hum-12) VH: QVQLVQSGAEVKKPGASVKVSCKASGYTFTDYNVHWIRQAPGQGLEWIGYFYPRNGATHYNQKFTGRATLTVDTSTSTAYMEISSLRSEDTAVYFCARGETPGTFPYWGQGTLVTVSS VL: DIQLTQSPSSLSASVGDRVTITCQASESVDNFGITFMHWYQQKPGKAPKLLIYRASNLETGVPSRFSGSGSRTDFTFTISSLQPEDIATYYCQQSSKDPRTFGQGTKLEIKR",
    "uom": "nM",
    "Kd": 3.54
  },
  {
    "binder": "FTL004-hu-18 (antibody, human IgG1, kappa, V domains shown, also called FLT004-hu-18; FTL004-hum-18) VH: EVQLVQSGAEVKKPGATVKISCKASGYTFTDYNVHWIQQAPGKGLEWIGYFYPRNGATHYNQKFTGRATLTADTSTDTAYMEISSLRSEDTAVYFCARGETPGTFPYWGQGTLVTVSS VL: DIQLTQSPSSLSASVGDRVTITCQASESVDNFGITFMHWYQQKPGKAPKLLIYRASNLETGVPSRFSGSGSRTDFTFTISSLQPEDIATYYCQQSSKDPRTFGQGTKLEIKR",
    "uom": "nM",
    "Kd": 4.16
  },
  {
    "binder": "FTL004-hu-16 (antibody, human IgG1, kappa, V domains shown, also called FLT004-hu-16; FTL004-hum-16) VH: EVQLVQSGAEVKKPGATVKISCKASGYTFTDYNVHWIQQAPGKGLEWIGYFYPRNGATHYAEKFQGRVTLTADTSTDTAYMELSSLRSEDTAVYYCARGETPGTFPYWGQGTLVTVSS VL: EIVLTQSPATLSLSPGERATLSCRASESVDNFGITFMHWYQQKPGQAPRLLIYRASNLESGIPARFSGSGSRTDFTLTISSLEPEDFAVYYCQQSSKDPRTFGQGTKLEIKR",
    "uom": "nM",
    "Kd": 25.2
  }
]
